Test system: SK-MEL-2 melanoma
assay_procedure: NCI tumour cell line growth inhibition, 48 h
Entries and their TGI values follow.
quantity_kind: TGI

| compound | obs_value |
| --- | --- |
| CCCNC1=C2C[C@@H](C)C[C@@H](OC)[C@@H](OC(=O)CCCN)[C@H](C)/C=C(\C)[C@@H](OC(N)=O)[C@H](OC)/C=C\C=C(/C)C(=O)NC(=CC1=O)C2=O | 30.9 µM |
| CNC(=O)c1cc(Oc2ccc3nc(NC(=O)Nc4ccc(CN5CCOCC5)c(C(F)(F)F)c4)sc3c2)ccn1 | 7.81 µM |
| Oc1ccc(-c2c3ccccc3c(-c3ccc(O)cc3)c3ccccc23)cc1 | > 100 µM |
| COc1ccc2[nH]c3cc4c(=O)c5cc(OC)ccc5[nH]c4cc3c(=O)c2c1 | > 100 µM |
| CC(C)C[S+]1C2=C([O-])CC(C)(C)CC2=Nc2ccccc21 (configuration not stated) | > 100 µM |
| N/C(=N\N=C\c1cc2ccccc2s1)c1cnccn1 | > 100 µM |
| N#Cc1ncc(C(Cl)Cl)nc1Cl | 4.33 µM |
| CCCCCCCCCCC(=O)CCCCCCC(=O)O | > 100 µM |
| Cc1ccsc1/C=N/NC1=NCCN1 | > 100 µM |
| c1ccc2c(c1)nnn2CNc1ccc(N2CCCCC2)cc1 | > 100 µM |
| Cc1cc(=O)oc2c(C3=NN(C=O)C(c4ccccc4)C3)c(O)ccc12 (configuration not stated) | > 100 µM |
| O=C1Cc2c(-c3ccccc3)cc(-c3ccccc3)nc2-c2ccccc2N1 | 7.27 µM |
| CC12Nc3ccccc3C1=C(c1ccccc1)CC1C(=O)OC(=O)C12 (configuration not stated) | > 100 µM |
| O=[N+]([O-])c1ccc(CSc2nn(Cc3ccc([N+](=O)[O-])cc3)cc3ncnc2-3)cc1 | 49.1 µM |
| O=C(CCC(=O)Nc1ccccc1C(F)(F)F)N/N=C1\C(=N\NC(=O)CCC(=O)Nc2ccccc2C(F)(F)F)C(c2ccc3c(c2)OCO3)Oc2ccccc21 (configuration not stated) | > 100 µM |
| C/C(=C1/N=C(c2cc([N+](=O)[O-])ccc2Cl)N(c2ccc(Br)cc2)C1=O)c1ccc(N(CCC#N)CCC#N)cc1C | > 100 µM |
| O=S(=O)(C1=CC(S(=O)(=O)c2ccccc2)COC1)c1ccccc1 (configuration not stated) | > 100 µM |

---

System: K-562 leukemia
assay_procedure: NCI tumour cell line growth inhibition, 48 h
Entries and their GI50 values follow.
quantity_kind: GI50

| compound | quantity_kind | obs_value |
| --- | --- | --- |
| C=CC(=O)N[C@@H]1CN(c2nc(Nc3cn(C)nc3OC)c3ncn(C)c3n2)C[C@H]1F | GI50 | 42.9 µM |
| COc1ccc(/C=C2/N=C(N/N=C\C(O)C(O)C(O)CO)NC2=O)cc1 (stereo not drawn) | GI50 | 33 µM |
| CCN(C(=O)N1CCN(c2cc3c(cc2F)c(=O)c(C(=O)O)cn3C2CC2)CC1)c1nc(-c2ccccc2)cs1 | GI50 | 3.2 µM |

---

Entries and their TGI values follow.
Tested on: UACC-62 melanoma
assay_procedure: NCI tumour cell line growth inhibition, 48 h
quantity_kind: TGI

| molecule | system_tested | quantity_kind | obs_value |
| --- | --- | --- | --- |
| O=C(NN1C(=O)C(Cl)C1c1cccc(O)c1)c1ccccc1O (centres undefined) | UACC-62 melanoma | TGI | > 100 µM |
| O=c1oc2cc(O)ccc2c2[nH]c3cc(O)ccc3c12 | UACC-62 melanoma | TGI | 31.7 µM |
| c1ccc2c(c1)[nH]c1cnc3c4ncccc4[nH]c3c12 | UACC-62 melanoma | TGI | > 100 µM |
| CN(C(=O)[C@H](NC(=O)OCc1ccccc1)c1ccccc1)C1CCCCC1N1CCCC1 (some centres undefined) | UACC-62 melanoma | TGI | > 100 µM |
